Values from PubChem BioAssay (NCI)

- ASSAY_NOTES: NCI Yeast Anticancer Drug Screen. Data for the mec2-1 strain (AID 157)
- RUN_CONDITIONS: S. cerevisiae mec2-1 strain, at 50.0 µM (retest, dose inferred, filed as 5.0), hits give high values
This is part of a sample that, as a whole, favours compounds with a hit. Of some 79,000 tested, about 15% had one in any assay.
# cutoff 50% applies to growth inhibition; >= gives rule met, < gives rule not met

Worked cases, answers included:
COMPOUND | CAT
CCOc1c(N=Nc2ccccc2OC)c(C)nn1C(=S)S | rule not met
Cc1cc2c3ccccc3c3ccccc3c2nn1 | rule not met
Nc1cc(N)c(N=Nc2cccc3c(S(=O)(=O)O)cccc23)cc1N=Nc1cc([N+](=O)[O-])ccc1O | rule met
CCCCCCC(O)CNCc1ccnc2ccc(OC)cc12 (stereo unspecified) | rule not met
O=C1NC(SSC2=NNC3(C(=O)N2)c2ccccc2-c2ccccc23)=NNC12c1ccccc1-c1ccccc12 | rule not met

Pending compound:
Exercise: Does the compound Cc1c2cc[n+](Cc3ccc(I)cc3)cc2c(C)c2c1[nH]c1ccccc12 have recorded growth inhibition that is 50% or more?
Solution: rule met
